System: gli-luciferase activity (Hh pathway) in TMHh12 cells
Test: "IC50 shift" gli-luciferase reporter assay in TMHh12 cells with a small molecule Smo agonist
Type: cell-based, mouse
Conditions: Mus musculus, TMHh12, TMHh12 cells, 1 nM small molecule Smo agonist; read-out: Gli_luc (1 nM Smo agonist) IC50
Excerpt: TM3 cells (mouse) transfected with a new proprietary reporter construct (pTA-8xGli-Luc). The pTA-8xGli-Luc reporter produces approx. 4 fold more luciferase activity than classical 8xGli-LUC. A highly responsive stable clone has been selected (TMHh12) with >10-fold signal/noise ratio and <10% CV in 384 well format. “IC50 shift” assays in TMHh12 cells. […]
Measure name: IC50 (nM)

Here are 2 compounds together with their reported answers.
Cc1cccc(C(=O)Nc2ccc3c(c2)C[C@@H](NCc2cnc4ccccc4c2)C3)c1-c1ccc(C(F)(F)F)cc1
1670
O=C(Nc1ccc2c(c1)CC(NCc1ccccn1)C2)c1cccc(C(F)(F)F)c1-c1ccc(C(F)(F)F)cc1 (stereo not shown)
2980

a = O=C(Nc1ccc2c(c1)CC(NS(=O)(=O)c1cccs1)C2)c1c(F)cccc1-c1ccc(C(F)(F)F)cc1 (stereo not shown)
b = Cc1cccc(C(=O)Nc2ccc3c(c2)CC(NCc2ccoc2)C3)c1-c1ccc(C(F)(F)F)cc1 (stereo not shown)
In: Please let me know which one, a or b , has a lower measured IC50 value. Your choice should be expressed through its label.
Out: b
(b: 686 nM, a: 1360 nM)

a = Cc1cccc(C(=O)Nc2ccc3c(c2)C[C@@H](NCc2ncc[nH]2)C3)c1-c1ccc(C(F)(F)F)cc1
b = COC(=O)C1(CNC2Cc3ccc(NC(=O)c4ccccc4-c4ccc(C(F)(F)F)cc4)cc3C2)CCCC1 (stereo not shown)
In: Recorded IC50 values differ for a and b ; which one is higher? Your choice should be expressed through its label.
Out: b
(b: 2580 nM, a: 1370 nM)
